TEST TARGET: Platelet-derived growth factor receptor alpha (Homo sapiens) (UniProt P16234)
Sequence (P16234 whole entry): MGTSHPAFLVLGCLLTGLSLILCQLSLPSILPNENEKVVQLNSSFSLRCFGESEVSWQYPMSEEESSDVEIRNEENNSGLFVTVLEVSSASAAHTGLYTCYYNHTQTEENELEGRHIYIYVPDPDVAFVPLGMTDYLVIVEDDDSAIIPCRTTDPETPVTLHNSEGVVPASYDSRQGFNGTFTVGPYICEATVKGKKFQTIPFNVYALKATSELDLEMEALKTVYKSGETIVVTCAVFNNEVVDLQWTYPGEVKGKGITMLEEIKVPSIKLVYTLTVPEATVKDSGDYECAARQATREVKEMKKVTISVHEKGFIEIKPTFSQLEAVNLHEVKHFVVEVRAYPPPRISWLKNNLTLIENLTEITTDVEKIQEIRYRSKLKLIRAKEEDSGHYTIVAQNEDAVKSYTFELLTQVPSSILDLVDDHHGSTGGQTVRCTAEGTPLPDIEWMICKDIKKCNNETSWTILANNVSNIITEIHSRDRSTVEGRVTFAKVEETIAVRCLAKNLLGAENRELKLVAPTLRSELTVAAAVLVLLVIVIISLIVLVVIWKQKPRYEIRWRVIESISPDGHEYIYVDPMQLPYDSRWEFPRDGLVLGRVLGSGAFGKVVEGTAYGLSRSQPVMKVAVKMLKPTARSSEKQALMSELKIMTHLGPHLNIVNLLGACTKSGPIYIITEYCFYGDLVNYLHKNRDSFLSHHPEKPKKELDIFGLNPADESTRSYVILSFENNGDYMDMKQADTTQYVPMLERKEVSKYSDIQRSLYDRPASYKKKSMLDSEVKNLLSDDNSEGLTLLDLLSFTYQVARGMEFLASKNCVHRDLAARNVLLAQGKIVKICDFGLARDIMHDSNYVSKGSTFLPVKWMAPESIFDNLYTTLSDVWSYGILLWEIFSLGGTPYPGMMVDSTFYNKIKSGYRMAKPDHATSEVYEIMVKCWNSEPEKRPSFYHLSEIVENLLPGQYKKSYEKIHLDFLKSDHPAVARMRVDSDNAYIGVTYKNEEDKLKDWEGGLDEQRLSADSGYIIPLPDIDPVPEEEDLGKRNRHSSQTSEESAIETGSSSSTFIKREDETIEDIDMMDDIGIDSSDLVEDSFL
CONDITIONS USED: at 1 µM
# residual activity listing for each entry below
Value expressed in %; do not type the unit.

Observe how each entry below is paired with its result.
CN(C)S(=O)(=O)c1ccc2c(c1)/C(=C/c1cc3c([nH]1)CCCC3)C(=O)N2: 33
O=C(Nc1ccc(Cl)cc1)c1ccccc1NCc1ccncc1: 39
O=C(c1cc2cc(O)ccc2[nH]1)c1cc2cc(O)ccc2[nH]1: 46

I have this molecule here, Cn1c2ccccc2c2c3c(c4c5ccccc5n(CCC#N)c4c21)CNC3=O , and I need its recorded residual activity.
98

Please look up its residual activity: O=C(CCCc1ccc(-c2ccccc2F)cc1)Nc1ccc(O)cc1
103

Param item = COc1cc2ncnc(Nc3cccc(Cl)c3)c2cc1OC ; retrieve measured residual activity.
104
